We begin with a simple list: items and their reported inhibition at 10 µM.
Target: hA1 AR (Homo sapiens)
Construct: host or cells: CHO-A1 (CHO cells expressing hA1 AR)
Sequence (P30542 whole entry): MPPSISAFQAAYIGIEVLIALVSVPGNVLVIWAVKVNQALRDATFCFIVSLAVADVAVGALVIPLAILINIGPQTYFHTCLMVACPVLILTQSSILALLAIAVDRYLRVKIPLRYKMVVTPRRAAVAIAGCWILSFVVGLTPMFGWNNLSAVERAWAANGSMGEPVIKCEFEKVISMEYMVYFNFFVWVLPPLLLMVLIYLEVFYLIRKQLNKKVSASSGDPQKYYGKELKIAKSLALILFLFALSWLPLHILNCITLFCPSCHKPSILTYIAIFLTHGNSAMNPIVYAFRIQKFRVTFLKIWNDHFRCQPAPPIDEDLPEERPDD
Experiment: Radioligand competition binding assay at hA1 AR
Conditions: 10 μM compound; [3H]DPCPX; CHO cells; read-out: Percentage Inhibition (%) at 10 μM, hA1 AR

{"compound": "COc1ccc(Nc2nc(N)nc(-c3ccc(F)cc3)n2)cc1F [Compound 11b]", "value.relation.sign": ">", "inhibition at 10 µM / %": 90}
{"compound": "COc1cc(Nc2nc(N)nc(-c3ccc(O)cc3)n2)ccc1Cl [Compound 9c]", "value.relation.sign": ">", "inhibition at 10 µM / %": 95}
{"compound": "COc1ccc(-c2nc(N)nc(Nc3ccc(OC)c(F)c3)n2)cc1 [Compound 11a]", "value.relation.sign": ">", "inhibition at 10 µM / %": 90}
{"compound": "Cc1cc(C)cc(Nc2nc(N)nc(-c3ccc(O)cc3)n2)c1 [Compound 9e]", "value.relation.sign": ">", "inhibition at 10 µM / %": 95}
{"compound": "COc1ccc(Nc2nc(N)nc(-c3ccc(O)cc3)n2)cc1F [Compound 9a]", "value.relation.sign": "=", "inhibition at 10 µM / %": 99}
{"compound": "Nc1nc(Nc2ccc(N3CCCCC3)cc2)nc(-c2ccc(O)cc2)n1 [Compound 9f]", "value.relation.sign": "=", "inhibition at 10 µM / %": 28}
{"compound": "COC(=O)c1ccc(-c2nc(N)nc(Nc3ccc(OC)c(F)c3)n2)cc1 [Compound 11f]", "value.relation.sign": "=", "inhibition at 10 µM / %": 52}
{"compound": "CCOC(=O)c1ccc(-c2nc(N)nc(Nc3ccc(OC)c(F)c3)n2)cc1 [Compound 11g]", "value.relation.sign": "=", "inhibition at 10 µM / %": 56}
{"compound": "Cc1ccc(Nc2nc(N)nc(-c3ccc(O)cc3)n2)c(C)c1 [Compound 9g]", "value.relation.sign": ">", "inhibition at 10 µM / %": 95}
